// endpoint pIC50 / system Cholinesterase (Homo sapiens)
Just so you know, pIC50 here is -log10 of the concentration in molar units; reply with that number alone.

Recorded results for 2 molecules are shown here.
molecule	study_target	attribute_measured	reported_measurement
O=C(Cc1cc(=O)oc2cc(O)ccc12)NCCCCNc1c2c(nc3ccccc13)CCCC2	Cholinesterase (Homo sapiens)	pIC50	6.48
O=C(Cc1cc(=O)oc2cc(O)ccc12)NCCNc1c2c(nc3ccccc13)CCCC2	Cholinesterase (Homo sapiens)	pIC50	4.90

Problem: Test system Cholinesterase (Homo sapiens); read-out pIC50; what value for CCN(CCC(=O)NCCCNc1c2c(nc3ccccc13)CCCC2)C1CCCCC1 ?
Solution: 6.57

Problem: GET /values?readout=pIC50&system=Cholinesterase (Homo sapiens)&item= CCN(CCC(=O)NCCNc1c2c(nc3ccccc13)CCCC2)C1CCCCC1
Solution: 6.12

Problem: Item O=C(Cc1cc(=O)oc2cc(O)ccc12)NCCCNc1c2c(nc3ccccc13)CCCC2 with Cholinesterase (Homo sapiens) - pIC50?
Solution: 6.08

Problem: Please tell me: pIC50 of CN(CCC(=O)NCCCNc1c2c(nc3ccccc13)CCCC2)C1CCCCC1 , system Cholinesterase (Homo sapiens)?
Solution: 5.62

Problem: Notebook: pull reported pIC50 for Cholinesterase (Homo sapiens), entry O=C(Cc1cc(=O)oc2cc(O)ccc12)N/N=C1\SCC(=O)N1c1c2c(nc3ccccc13)CCCC2
Solution: 5.25

Problem: Report pIC50 for CCN(CCC(=O)NCCCCNc1c2c(nc3ccccc13)CCCC2)C1CCCCC1 tested on Cholinesterase (Homo sapiens).
Sequence (P06276 whole entry): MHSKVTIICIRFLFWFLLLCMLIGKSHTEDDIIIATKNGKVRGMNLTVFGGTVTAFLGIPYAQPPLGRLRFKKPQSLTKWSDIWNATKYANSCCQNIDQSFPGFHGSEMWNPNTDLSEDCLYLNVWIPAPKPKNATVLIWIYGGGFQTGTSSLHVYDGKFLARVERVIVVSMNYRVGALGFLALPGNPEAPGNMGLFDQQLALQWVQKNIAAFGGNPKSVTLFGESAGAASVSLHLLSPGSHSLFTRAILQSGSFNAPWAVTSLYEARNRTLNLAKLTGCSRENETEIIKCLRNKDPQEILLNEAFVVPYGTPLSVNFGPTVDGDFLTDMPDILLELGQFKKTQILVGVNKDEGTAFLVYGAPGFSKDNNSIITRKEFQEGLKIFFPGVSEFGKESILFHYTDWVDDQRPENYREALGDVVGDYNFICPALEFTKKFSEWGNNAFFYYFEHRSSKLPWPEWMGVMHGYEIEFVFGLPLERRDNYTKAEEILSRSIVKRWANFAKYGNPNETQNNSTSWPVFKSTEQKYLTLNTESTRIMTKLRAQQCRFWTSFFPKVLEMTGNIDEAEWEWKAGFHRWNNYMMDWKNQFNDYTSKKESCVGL
Solution: 6.64

Data provenance: ChEMBL document CHEMBL3351824
